# System: Plasmodium falciparum
# ASSAY NOTES: MMV: Measure of pLDH activity as indication of parasite viability. Gametocytogenesis of 3D7 Plasmodium falciparum strain was induced in vitro and asexual parasites were depleted with N-acetylglucosamine. Gametocytes were treated with dihydroartemisinin, epoxomicin, methylene blue, primaquine, puromycin or chloroquine in 96-well plates and the pLDH activity was evaluated using a modified Makler protocol. Mosquito infectivity was measured by the standard membrane feeding assay.
# Format: functional
# Set-up: concentration or dose not given beside the values
Listed below: Growth Inhibition values for each entry.

{"COMPOUND": "CCOC(=O)c1cnc2c(C)cc(C)cc2c1Nc1ccc(OC)c(OC)c1", "SYSTEM TESTED": "Plasmodium falciparum", "Growth Inhibition, %": -11.2088}
{"COMPOUND": "Cc1ccc(-c2cc3nc4c(c(O)n3n2)CCCC4)cc1", "SYSTEM TESTED": "Plasmodium falciparum", "Growth Inhibition, %": 9.811}
{"COMPOUND": "CCOc1ccccc1CNC(=O)C1c2ccccc2C(=O)N(CC(C)C)C1c1cccs1 (stereo unspecified)", "SYSTEM TESTED": "Plasmodium falciparum", "Growth Inhibition, %": 7.24}
{"COMPOUND": "CCCCc1ccc(NS(=O)(=O)c2cc3c4c(c2)CCN4C(=O)CC3)cc1", "SYSTEM TESTED": "Plasmodium falciparum", "Growth Inhibition, %": -1.4264}
{"COMPOUND": "CCOc1cc2c(cc1OCC)C(c1cc(Cl)c(O)c(OCC)c1)NCC2 (stereo unspecified)", "SYSTEM TESTED": "Plasmodium falciparum", "Growth Inhibition, %": 16.0386}
{"COMPOUND": "CCCCCCc1cc2cc(-c3csc(C=Cc4ccccc4)n3)c(=O)oc2cc1O", "SYSTEM TESTED": "Plasmodium falciparum", "Growth Inhibition, %": 20.6338}
{"COMPOUND": "CCCCNCC(O)(c1ccc(Cl)cc1)c1ccc(Cl)cc1", "SYSTEM TESTED": "Plasmodium falciparum", "Growth Inhibition, %": 33.502}
{"COMPOUND": "CCC(c1ccccc1)c1nn2c(-c3cccs3)nnc2s1 (stereo unspecified)", "SYSTEM TESTED": "Plasmodium falciparum", "Growth Inhibition, %": 4.041}
{"COMPOUND": "CCOc1ccc2nc(C)cc(Nc3ccc(N(C)C)cc3)c2c1.Cl", "SYSTEM TESTED": "Plasmodium falciparum", "Growth Inhibition, %": 13.9954}
{"COMPOUND": "O=c1nc(C=Cc2ccc(Br)cc2)oc2ccccc12", "SYSTEM TESTED": "Plasmodium falciparum", "Growth Inhibition, %": 11.7922}
{"COMPOUND": "CCOC(=O)c1cnc2ccc(OC)cc2c1Nc1ccc(N2CCN(C)CC2)cc1", "SYSTEM TESTED": "Plasmodium falciparum", "Growth Inhibition, %": 5.5888}

----------
# Tested on: Plasmodium falciparum
# ASSAY NOTES: MMV: Measure of pLDH activity as indication of parasite viability. Gametocytogenesis of 3D7 Plasmodium falciparum strain was induced in vitro and asexual parasites were depleted with N-acetylglucosamine. Gametocytes were treated with dihydroartemisinin, epoxomicin, methylene blue, primaquine, puromycin or chloroquine in 96-well plates and the pLDH activity was evaluated using a modified Makler protocol. Mosquito infectivity was measured by the standard membrane feeding assay.
# Assay type: functional
# Design: concentration or dose not given beside the values
Listed below: Growth Inhibition values for each entry.

{"MOLECULE": "COc1ccc(Nc2cc(C)nc(NCc3ccccc3)n2)cc1", "SYSTEM TESTED": "Plasmodium falciparum", "SCALE UNIT": "%", "Growth Inhibition": 8.4962}
{"MOLECULE": "COc1ccc(C2Sc3ccccc3N=C3C2=C(O)c2ccccc23)cc1 (configuration not stated)", "SYSTEM TESTED": "Plasmodium falciparum", "SCALE UNIT": "%", "Growth Inhibition": -5.7444}
{"MOLECULE": "OC(CNCC1CCCO1)Cn1c2ccc(Cl)cc2c2cc(Cl)ccc21 (configuration not stated)", "SYSTEM TESTED": "Plasmodium falciparum", "SCALE UNIT": "%", "Growth Inhibition": 10.6906}
{"MOLECULE": "Cc1cc(N2CCCC2)nc(Nc2ccc(NC(=O)CCc3ccccc3)cc2)n1", "SYSTEM TESTED": "Plasmodium falciparum", "SCALE UNIT": "%", "Growth Inhibition": 14.278}
{"MOLECULE": "CC(C)=CCN1CCC(C(=O)Nc2ccc(-c3nc4ccccc4[nH]3)cc2)CC1", "SYSTEM TESTED": "Plasmodium falciparum", "SCALE UNIT": "%", "Growth Inhibition": 16.6684}
{"MOLECULE": "CCCN(CCC)CCCNC(=O)c1cc2c(-c3ccc(OC)c(OC)c3)nn(C)c2s1", "SYSTEM TESTED": "Plasmodium falciparum", "SCALE UNIT": "%", "Growth Inhibition": 9.751}
{"MOLECULE": "Cc1ccc(-c2cc3c(SCC(=O)Nc4cc(C(F)(F)F)ccc4Cl)nccn3n2)cc1", "SYSTEM TESTED": "Plasmodium falciparum", "SCALE UNIT": "%", "Growth Inhibition": -10.2658}
{"MOLECULE": "Oc1ccc(Br)cc1CN1CCN(Cc2ccc(Cl)cc2)CC1", "SYSTEM TESTED": "Plasmodium falciparum", "SCALE UNIT": "%", "Growth Inhibition": 44.4912}
{"MOLECULE": "O=C(Nc1ccc(Cl)cc1C(=O)Nc1ccncc1)c1ccc(Cl)cc1Cl", "SYSTEM TESTED": "Plasmodium falciparum", "SCALE UNIT": "%", "Growth Inhibition": 4.844}
{"MOLECULE": "CCOC(=O)c1c(NC(=O)c2ccccc2)sc2c(O)c(CN(CC)CC)ccc12", "SYSTEM TESTED": "Plasmodium falciparum", "SCALE UNIT": "%", "Growth Inhibition": 35.4934}
{"MOLECULE": "COc1cc(C(=O)ON=C(N)Cc2cccc3ccccc23)cc(OC)c1OC", "SYSTEM TESTED": "Plasmodium falciparum", "SCALE UNIT": "%", "Growth Inhibition": 60.0732}
{"MOLECULE": "COc1ccc(CNC(=O)c2cc3c(=O)n4ccccc4nc3n(CCc3ccccc3)c2=N)cc1", "SYSTEM TESTED": "Plasmodium falciparum", "SCALE UNIT": "%", "Growth Inhibition": 29.2402}
{"MOLECULE": "CCc1c(C)c(=N)c2ccccc2n1C.I", "SYSTEM TESTED": "Plasmodium falciparum", "SCALE UNIT": "%", "Growth Inhibition": -4.4994}
{"MOLECULE": "CCCc1c(CC)c(=N)c2ccccc2n1C", "SYSTEM TESTED": "Plasmodium falciparum", "SCALE UNIT": "%", "Growth Inhibition": 4.7322}
{"MOLECULE": "CC(C)(C)c1ccc2c(c1)CN(Cc1ccc(Cl)cc1)CO2", "SYSTEM TESTED": "Plasmodium falciparum", "SCALE UNIT": "%", "Growth Inhibition": 36.3995}
{"MOLECULE": "CC1CCN(Cc2ccc(NC(=O)c3cc4ccc5cccnc5c4[nH]3)cc2)CC1", "SYSTEM TESTED": "Plasmodium falciparum", "SCALE UNIT": "%", "Growth Inhibition": 2.4882}
{"MOLECULE": "O=C(Nc1ccc(Cl)cc1)N1CCN(c2ccc3nncn3n2)CC1", "SYSTEM TESTED": "Plasmodium falciparum", "SCALE UNIT": "%", "Growth Inhibition": -0.5422}
{"MOLECULE": "Cl.Oc1ccccc1CNCC12CC3CC(CC(C3)C1)C2", "SYSTEM TESTED": "Plasmodium falciparum", "SCALE UNIT": "%", "Growth Inhibition": 28.0055}
{"MOLECULE": "COc1ccc(C2c3ccc4ccccc4c3Oc3ncn(CCCn4ccnc4)c(=N)c32)cc1OC (configuration not stated)", "SYSTEM TESTED": "Plasmodium falciparum", "SCALE UNIT": "%", "Growth Inhibition": 22.0606}
{"MOLECULE": "COc1cccc(Nc2nc(N)c3ccccc3n2)c1.Cl", "SYSTEM TESTED": "Plasmodium falciparum", "SCALE UNIT": "%", "Growth Inhibition": 17.598}
{"MOLECULE": "COc1ccccc1N1C(=N)SC(=Cc2ccc(OCc3ccccc3F)cc2)C1=O", "SYSTEM TESTED": "Plasmodium falciparum", "SCALE UNIT": "%", "Growth Inhibition": 14.0558}
{"MOLECULE": "Cc1cc(N2CCN(C3CCCC3)CC2)n2c(nc3ccccc32)c1C#N", "SYSTEM TESTED": "Plasmodium falciparum", "SCALE UNIT": "%", "Growth Inhibition": 0.943}
